target: Cyclooxygenase-1 (COX-1) (Ovis aries, UniProt P05979); construct: purchased Cayman Chemical Company 560101; experiment: COX-1 inhibition, COX Inhibitor Screening Assay Kit (PGF2α production, ELISA); format: biochemical; settings: compound 50 μM
Attribute: COX-1 inhibitory action at 50 μM (% inhibition)
Express the result in % inhibition but write the number alone.

Some molecules with known COX-1 inhibitory action at 50 μM (% inhibition) results, for comparison:
{"columns": ["Molecule", "Readout number"],
 "data": [
  ["Cc1ccc(-n2nc(C(=O)N3CCC(F)CC3)cc2-c2cnc(C)cn2)cn1 [Example 32]", "−8.4"],
  ["COc1ccc(-c2cc(C(=O)N3CCOCC3)nn2-c2ccc(C)nc2)nc1 [Example 1]", "−13.3"],
  ["Cc1ccc(-c2cc(C(=O)N3CCC(F)(F)CC3)nn2-c2ccc(C)nn2)nc1 [Example 18]", "−3.0"],
  ["COc1ccc(-c2cc(C(=O)N3CCC(OC)CC3)nn2-c2ccc(C)nc2)nc1 [Example 4]", "−13.3"],
  ["COc1ccc(-n2nc(C(=O)N3CCOCC3)cc2-c2cc[nH]n2)cn1 [Example 33]", "−9.5"],
  ["COc1ccc(-n2nc(C(=O)N3CCN(C)C(=O)C3)cc2-c2ccn(C)c2)nn1 [Example 124]", 8.3],
  ["COc1ccc(-n2nc(C(=O)N3CCC(F)(F)CC3)cc2-c2cnn(C)c2)nn1 [Example 141]", 24.4],
  ["Cc1ccc(-n2nc(C(=O)N3CCOCC3)cc2-c2ccn(C)c2)cn1 [Example 16]", "−5.2"],
  ["COc1ccc(-n2nc(C(=O)N3CCC(OC)CC3)cc2-c2cnn(C)c2)cn1 [Example 119]", 13.0],
  ["COc1ccc(-n2nc(C(=O)N3CCC(OC)CC3)cc2-c2cn(C)cn2)cn1 [Example 73]", 5.9]
]}

What does the record list as COX-1 inhibitory action at 50 μM (% inhibition) for COc1ccc(-n2nc(C(=O)N3CCN(C)C(=O)C3)cc2-c2ccn(C)n2)cn1 [Example 36] ?
1.2

====

target: Cyclooxygenase-1 (COX-1) (Ovis aries, UniProt P05979); construct: purchased Cayman Chemical Company 560101; experiment: COX-1 inhibition, COX Inhibitor Screening Assay Kit (PGF2α production, ELISA); type: biochemical; settings: compound 50 μM
Parameter: COX-1 inhibitory action at 50 μM (% inhibition)
Please state the value followed by its unit.

These recorded examples may help you get a feel for the data.
{"columns": ["Compound", "Measurement target", "Result"],
 "data": [
  ["COc1ccc(-n2nc(C(=O)N3CCCCN3)cc2-c2ccccn2)nn1", "Cyclooxygenase-1 (COX-1) (Ovis aries, UniProt P05979)", "−35.9 % inhibition"],
  ["COc1ccc(-n2nc(C(=O)N3CCCC(OC)C3)cc2-c2ccccn2)cn1 (stereo not drawn)", "Cyclooxygenase-1 (COX-1) (Ovis aries, UniProt P05979)", "−18.4 % inhibition"],
  ["COc1ccc(-n2nc(C(=O)N3CCN(C)C(=O)C3)cc2-n2cccc2)cn1", "Cyclooxygenase-1 (COX-1) (Ovis aries, UniProt P05979)", "54.1 % inhibition"],
  ["COc1ccc(-n2nc(C(=O)N3CCC(OC)CC3)cc2-c2ccc[nH]2)nn1", "Cyclooxygenase-1 (COX-1) (Ovis aries, UniProt P05979)", "39.3 % inhibition"],
  ["COc1ccc(-n2nc(C(=O)N3CCN(C)CC3)cc2-c2ccc[nH]2)nn1", "Cyclooxygenase-1 (COX-1) (Ovis aries, UniProt P05979)", "25.9 % inhibition"]
]}

Which measured COX-1 inhibitory action at 50 μM (% inhibition) value corresponds to COc1ccc(-n2nc(C(=O)N3CCC(OC)CC3)cc2-c2ccccn2)cn1 ?
−17.0 % inhibition

Recorded COX-1 inhibitory action at 50 μM (% inhibition) of Cc1ccc(-n2nc(C(=O)N3CCC(F)(F)CC3)cc2-c2cnc(C)cn2)cn1 , please.
−1.2 % inhibition

Sample COc1ccc(-n2nc(C(=O)N3CCN(C)C(=O)C3)cc2-c2cscn2)cn1 — what was its COX-1 inhibitory action at 50 μM (% inhibition)?
−6.4 % inhibition

Given COc1ccc(-n2nc(C(=O)N3CCOCC3)cc2-c2cc[nH]c2)nn1 , state its recorded COX-1 inhibitory action at 50 μM (% inhibition).
−21.3 % inhibition

Recorded COX-1 inhibitory action at 50 μM (% inhibition) of COc1ccc(-n2nc(C(=O)N3CCOC[C@H]3C)cc2-c2ccccn2)nn1 , please.
−3.9 % inhibition

====

Quick reference: COX-1 inhibitory action at 50 μM (% inhibition) of the listed items.
Biological target: Cyclooxygenase-1 (COX-1) (Ovis aries, UniProt P05979)
Construct: purchased Cayman Chemical Company 560101
Sequence (P05979 25-600): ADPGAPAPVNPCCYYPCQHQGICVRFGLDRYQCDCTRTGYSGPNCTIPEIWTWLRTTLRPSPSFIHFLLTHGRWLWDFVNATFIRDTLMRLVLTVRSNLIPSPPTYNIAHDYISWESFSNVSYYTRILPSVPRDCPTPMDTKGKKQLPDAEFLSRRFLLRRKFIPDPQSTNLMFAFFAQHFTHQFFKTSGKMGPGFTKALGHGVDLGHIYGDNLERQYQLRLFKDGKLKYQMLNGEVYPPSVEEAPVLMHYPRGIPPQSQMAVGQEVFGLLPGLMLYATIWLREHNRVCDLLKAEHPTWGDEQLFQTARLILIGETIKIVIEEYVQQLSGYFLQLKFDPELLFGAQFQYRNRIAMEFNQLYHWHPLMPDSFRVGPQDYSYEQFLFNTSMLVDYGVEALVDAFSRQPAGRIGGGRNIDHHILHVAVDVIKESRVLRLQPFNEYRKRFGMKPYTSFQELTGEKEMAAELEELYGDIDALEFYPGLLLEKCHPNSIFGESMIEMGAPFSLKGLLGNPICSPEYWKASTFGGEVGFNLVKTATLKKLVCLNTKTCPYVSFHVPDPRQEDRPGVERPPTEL
Assay: COX-1 inhibition, COX Inhibitor Screening Assay Kit (PGF2α production, ELISA)
Assay type: biochemical
Conditions: compound 50 μM
Write the numeric value and append its unit.

Sample answers from the record:
{"columns": ["Compound", "Measurement target", "Result"],
 "data": [
  ["COc1ccc(-n2nc(C(=O)N3CCN(C)C(=O)C3)cc2-c2cnn(C)c2)cn1 [Example 121]", "Cyclooxygenase-1 (COX-1) (Ovis aries, UniProt P05979)", "−0.7 % inhibition"],
  ["COc1ccc(-n2nc(C(=O)N3CCC[C@H]3CF)cc2-c2ccccn2)nn1 [Example 31]", "Cyclooxygenase-1 (COX-1) (Ovis aries, UniProt P05979)", "−10.5 % inhibition"],
  ["COC1CCN(C(=O)c2cc(-c3cnc(C)cn3)n(-c3ccc(C)nc3)n2)CC1 [Example 3]", "Cyclooxygenase-1 (COX-1) (Ovis aries, UniProt P05979)", "−21.2 % inhibition"]
]}

Next, consider the following compound.
Entry under review: COc1ccc(-n2nc(C(=O)N3CCCC3C)cc2-c2ccccn2)nn1 (centres unmarked) [Example 27] . Reported COX-1 inhibitory action at 50 μM (% inhibition)?
−10.2 % inhibition

====

Target: Cyclooxygenase-1 (COX-1) (Ovis aries, UniProt P05979)
Construct: purchased Cayman Chemical Company 560101
Sequence (P05979 25-600): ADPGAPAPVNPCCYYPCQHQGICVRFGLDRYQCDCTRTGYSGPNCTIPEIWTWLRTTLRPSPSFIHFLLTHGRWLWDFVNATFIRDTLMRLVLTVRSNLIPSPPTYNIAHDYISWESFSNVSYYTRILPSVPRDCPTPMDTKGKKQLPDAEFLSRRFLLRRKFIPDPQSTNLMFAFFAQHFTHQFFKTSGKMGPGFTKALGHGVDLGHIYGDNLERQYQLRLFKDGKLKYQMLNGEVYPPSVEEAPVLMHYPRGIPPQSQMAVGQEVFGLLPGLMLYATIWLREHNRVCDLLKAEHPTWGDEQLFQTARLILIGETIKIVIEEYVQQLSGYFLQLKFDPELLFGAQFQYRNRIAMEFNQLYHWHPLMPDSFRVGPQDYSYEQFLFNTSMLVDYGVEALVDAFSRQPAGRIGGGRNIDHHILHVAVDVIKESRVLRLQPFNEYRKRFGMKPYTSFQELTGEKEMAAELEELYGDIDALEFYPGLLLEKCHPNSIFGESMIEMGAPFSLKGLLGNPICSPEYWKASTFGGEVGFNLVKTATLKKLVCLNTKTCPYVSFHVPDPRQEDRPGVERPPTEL
Experiment: COX-1 inhibition, COX Inhibitor Screening Assay Kit (PGF2α production, ELISA)
Assay type: biochemical
Details: compound 50 μM
Parameter: COX-1 inhibitory action at 50 μM (% inhibition)
Return type: number; implicit unit % inhibition.

Could you tell me which COX-1 inhibitory action at 50 μM (% inhibition) is on file for COc1ccc(-n2nc(C(=O)N3CCN(C)CC3)cc2-c2cscn2)cn1 ?
−21.2

Please look up its COX-1 inhibitory action at 50 μM (% inhibition): COc1ccc(-n2nc(C(=O)N3CCOC[C@@H]3C)cc2-c2ccccn2)nn1
−9.6

Look up COX-1 inhibitory action at 50 μM (% inhibition): COc1ccc(-n2nc(C(=O)N3CCOCC3)cc2-c2cscn2)cn1
−12.7

Given COc1ccc(-n2nc(C(=O)N3CCOCC3)cc2-c2cnn(C)c2)cn1 , state its recorded COX-1 inhibitory action at 50 μM (% inhibition).
−21.2
